target: Cannabinoid receptor 1 (Homo sapiens, UniProt P21554)
Sequence (P21554 whole entry): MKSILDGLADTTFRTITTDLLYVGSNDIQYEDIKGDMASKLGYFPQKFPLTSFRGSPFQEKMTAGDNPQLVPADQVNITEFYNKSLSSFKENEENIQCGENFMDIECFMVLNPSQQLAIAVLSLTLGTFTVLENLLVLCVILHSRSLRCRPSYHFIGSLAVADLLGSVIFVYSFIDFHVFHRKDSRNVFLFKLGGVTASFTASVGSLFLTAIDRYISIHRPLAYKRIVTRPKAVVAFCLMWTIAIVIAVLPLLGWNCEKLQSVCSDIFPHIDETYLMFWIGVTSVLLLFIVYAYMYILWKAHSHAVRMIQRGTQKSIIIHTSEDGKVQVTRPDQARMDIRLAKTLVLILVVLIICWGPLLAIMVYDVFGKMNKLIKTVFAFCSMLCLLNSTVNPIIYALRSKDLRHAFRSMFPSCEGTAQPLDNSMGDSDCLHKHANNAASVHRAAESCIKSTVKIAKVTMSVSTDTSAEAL

| smiles_text | lt_gt_eq | Ki (µM) |
| --- | --- | --- |
| CCc1c(C(=O)NC2CCCCC2)cc(C)n1-c1ccccc1 | = | 4.57 |
| Cc1cc(C(=O)NC23CC4CC(CC(C4)C2)C3)c(C)n1-c1ccccc1 | = | 0.518 |
| CCOC(=O)c1c(NS(=O)(=O)c2cccc3ccccc23)sc2c1CCCC2 | > | 10 |
| CCc1c(C(=O)Nc2cccc3ccccc23)cc(C)n1-c1ccccc1 | = | 0.505 |
| CCOC(=O)c1cc(-c2ccccc2)sc1NS(=O)(=O)c1ccccc1 | > | 10 |
